- Test system: U2OS
- experiment_description: Multiplex assay against U2OS
- Assay type: toxicity, cell-based
- conditions_used: human, 24 h, 1 µM, compound concentration 1 uM, replicate 1
endpoint_name: Population Mitochondria Different-Phenotype (%)
Expressed in %, but write only the number.

(Q) Which Population Mitochondria Different-Phenotype (%) reading was recorded for the compound NCCc1cn(S(=O)(=O)c2c(Cl)nc3sccn23)c2ccccc12.O=C(O)C(=O)O ?
(A) 5

(Q) Entry C[C@H](N)COC(=O)[C@@H](CCCCN)NC(=O)Cc1c(-c2ccc3ccccc3c2)[nH]c2c1ccc1ccccc12 please
(A) 1

(Q) Entry COc1ccccc1N1CCN(C[C@@H](C(=O)NC(C)(C)C)c2ccccc2)CC1.Cl.Cl please
(A) 1

(Q) Entry CN[C@@H](C)C(=O)N[C@H](C(=O)N1CCC[C@H]1C(=O)Nc1snnc1-c1ccccc1)C1CCCCC1 please
(A) 18

(Q) Entry Cc1sc2c(c1C)C(c1ccc(Cl)cc1)=N[C@@H](CC(=O)NCCCCCCCCNC(=O)COc1cccc3c1C(=O)N(C1CCC(=O)NC1=O)C3=O)c1nnc(C)n1-2 (some centres not stated) please
(A) 3

(Q) Entry Cl.NCCc1ccc(O)c(O)c1 [DOPAMINE HYDROCHLORIDE] please
(A) 2

(Q) Entry N#Cc1cc(F)cc(-c2nc(-c3ccc(F)cn3)no2)c1 please
(A) 0

(Q) Entry Cc1onc(-c2ccccc2Cl)c1C(=O)N(C)c1ccc(Cl)cc1 please
(A) 2

(Q) Entry COc1cccc2c1c(NS(=O)(=O)c1ccc(Cl)s1)nn2Cc1cccc(CNC(=O)C(C)(C)O)c1 please
(A) 1

(Q) Entry CCCCC1=NC2(CCCC2)C(=O)N1Cc1ccc(-c2ccccc2-c2nnn[nH]2)cc1 please
(A) 3

(Q) Entry Cc1c(CC(=O)O)c2cccnc2n1Cc1ccc(S(C)(=O)=O)cc1C(F)(F)F please
(A) 3

(Q) Entry O=C(NCCN1CCC(n2c(=O)[nH]c3cc(Cl)ccc32)CC1)c1ccc(F)cc1 [HALOPEMIDE] please
(A) 1

(Q) Entry Cc1noc(-c2ccc(-c3ccc(CC(=O)O)cc3)cc2)c1NC(=O)O[C@H](C)c1ccccc1Cl please
(A) 4

(Q) Entry CC(C)c1noc(N2CCC(COc3ccc(-c4ccc(S(C)(=O)=O)cc4)nc3)CC2)n1 please
(A) 2

(Q) Entry COC[C@@H](c1ccc(C(F)(F)F)cc1)N1CCN(C2(C)CCN(C(=O)c3c(C)ncnc3C)CC2)C[C@@H]1C.O=C(O)/C=C\C(=O)O [VICRIVIROC MALEATE] please
(A) 3

(Q) Entry CC(C)COc1ccc(CNC(=O)N(Cc2ccc(F)cc2)C2CCN(C)CC2)cc1 please
(A) 4

(Q) Entry O=C1[C@H](Cc2ccc(O)cc2)N2C(=O)CCN(C(=O)NCc3ccccc3)[C@H]2CN1Cc1cccc2ccccc12 please
(A) 1

* * *

- Test system: U2OS
- experiment_description: Multiplex assay against U2OS
- Assay type: toxicity, cell-based
- conditions_used: human, 24 h, 10 µM, compound concentration 10 uM, replicate 1
Could you label it 1 if measured Population Pyknosed Nuclei (%) is 9% or higher, and 0 otherwise?

(Q) Given Cc1cccc(NC(=O)CN2CCC(c3ccccn3)CC2)c1.Cl.Cl , state whether its Population Pyknosed Nuclei (%) is at least 9%.
(A) 1

(Q) Entry Br.CS(=O)(=O)Nc1c(O)ccc2c1CCCC2C1=NCCN1 (stereo not given) please
(A) 0

(Q) Entry O=C(NCCN1CCC(n2c(=O)[nH]c3cc(Cl)ccc32)CC1)c1ccc(F)cc1 [HALOPEMIDE] please
(A) 1

(Q) Entry Cc1c(CC(=O)O)c2cccnc2n1Cc1ccc(S(C)(=O)=O)cc1C(F)(F)F please
(A) 0

(Q) Entry CC[C@@H](C)Nc1nc(C)nc2c(-c3ccc(OC)nc3C)c(C)nn12 please
(A) 0

(Q) Entry Cc1noc(-c2ccc(-c3ccc(CC(=O)O)cc3)cc2)c1NC(=O)O[C@H](C)c1ccccc1Cl please
(A) 1

(Q) Entry Cc1onc(-c2ccccc2Cl)c1C(=O)N(C)c1ccc(Cl)cc1 please
(A) 1

Every entry's value here was drawn from ChEMBL document CHEMBL5058577.
